Reference source: patent US20230233569A1

Give measured IC50 for each item. Keep answers brief.
tested-target: KRAS G12S (Homo sapiens, UniProt P01116+P62937, G12S)
Sequence (P01116 1-169 isoform P01116-2 G12S limits assumed, one chain of several): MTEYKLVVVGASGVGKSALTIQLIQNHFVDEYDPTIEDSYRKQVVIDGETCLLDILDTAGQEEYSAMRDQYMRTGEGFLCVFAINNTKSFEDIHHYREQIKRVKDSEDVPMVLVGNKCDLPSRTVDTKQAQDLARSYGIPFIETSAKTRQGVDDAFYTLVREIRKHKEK
test-method-notes: Ras-Raf disruption / FRET / MOA assay (BRAF RBD)
Assay type: biochemical
condition-summary: KRAS G12S FRET data IC50, Ras-Raf disruption, with Cyclophilin A
From the text: Disruption of […] Ras-binding Domain (BRAF^RBD) Interaction with K-Ras by Compounds of the Invention (also Called a FRET Assay or an MOA Assay) Note—The following protocol describes a procedure for monitoring disruption of K-Ras G12C (GMP-PNP) binding to BRAF^RBD by a compound of the invention. This protocol may also be executed substituting other Ras proteins or nucleotides, such as K-Ras G12D and K-Ras G13D. […]

Req: Requested read-out: IC50. Entry: CCn1c(-c2cccnc2[C@H](C)OC)c2c3cc(ccc31)-c1cc(O)cc(c1)C[C@H](NC(=O)[C@H](C1CCCC1)N(C)C(=O)CN(C)C(=O)[C@H]1N[C@H]1C1(F)CC1)C(=O)N1CCC[C@H](N1)C(=O)OCC(C)(C)C2
Resp: 10 to 100 nM

Req: Requested read-out: IC50. Entry: CCn1c(-c2cccnc2[C@H](C)OC)c2c3cc(ccc31)-c1cc(O)cc(c1)C[C@H](NC(=O)[C@H](C(C)C)N(C)C(=O)CN(C)C(=O)[C@@H]1CN1CCCOC(C)=O)C(=O)N1CCC[C@H](N1)C(=O)OCC(C)(C)C2 (stereo partly drawn)
Resp: 10 to 100 nM

Req: Requested read-out: IC50. Entry: CC[C@@H]1N[C@@H]1C(=O)N(C)CC(=O)N(C)[C@H](C(=O)N[C@H]1Cc2cc(O)cc(c2)-c2ccc3c(c2)c(c(-c2cccnc2[C@H](C)OC)n3CC)CC(C)(C)COC(=O)[C@@H]2CCCN(N2)C1=O)C(C)C
Resp: 10 to 100 nM

Req: Requested read-out: IC50. Entry: CCn1c(-c2cccnc2[C@H](C)OC)c2c3cc(ccc31)-c1cc(O)cc(c1)C[C@H](NC(=O)[C@H](C1CCCC1)N(C)C(=O)CN(C)C(=O)[C@H]1[C@@H](C3CC3)N1CCCOC)C(=O)N1CCC[C@H](N1)C(=O)OCC(C)(C)C2 (stereo partly drawn)
Resp: 10 to 100 nM

Req: Requested read-out: IC50. Entry: CCn1c(-c2cccnc2[C@H](C)OC)c2c3cc(ccc31)-c1cc(O)cc(c1)C[C@H](NC(=O)[C@H](C(C)C)N(C)C(=O)CN(C)C(=O)[C@H]1CN1Cc1ccccc1CO)C(=O)N1CCC[C@H](N1)C(=O)OCC(C)(C)C2 (stereo partly drawn)
Resp: 10 to 100 nM

Req: Requested read-out: IC50. Entry: CCn1c(-c2cccnc2[C@H](C)OC)c2c3cc(ccc31)-c1cc(O)cc(c1)C[C@H](NC(=O)[C@H](C(C)C)N(C)C(=O)CN(C)C(=O)[C@]1(C)CN1)C(=O)N1CCC[C@H](N1)C(=O)OCC(C)(C)C2
Resp: 10 to 100 nM

Req: Requested read-out: IC50. Entry: CCn1c(-c2cccnc2[C@H](C)OC)c2c3cc(ccc31)-c1cc(O)cc(c1)C[C@H](NC(=O)[C@H](C(C)C)N1CC[C@@H](NC(=O)[C@@H]3CN3)C1=O)C(=O)N1CCC[C@H](N1)C(=O)OCC(C)(C)C2
Resp: 10 to 100 nM

Req: Requested read-out: IC50. Entry: CCn1c(-c2cccnc2[C@H](C)OC)c2c3cc(ccc31)-c1cc(O)cc(c1)C[C@H](NC(=O)[C@H](C(C)C)N(C)C(=O)[C@@H](C)N(C)C(=O)[C@H]1CN1)C(=O)N1CCC[C@H](N1)C(=O)OCC(C)(C)C2
Resp: 1000 to 10000 nM

Req: Requested read-out: IC50. Entry: CCn1c(-c2cccnc2[C@H](C)OC)c2c3cc(ccc31)-c1cc(O)cc(c1)C[C@H](NC(=O)[C@H](C(C)C)N(C)C(=O)CN(C)C(=O)[C@H]1CN1C1COC1)C(=O)N1CCC[C@H](N1)C(=O)OCC(C)(C)C2 (stereo partly drawn)
Resp: 10 to 100 nM

Req: Requested read-out: IC50. Entry: CCn1c(-c2cccnc2[C@H](C)OC)c2c3cc(ccc31)-c1cc(O)cc(c1)C[C@H](NC(=O)[C@H](C(C)C)N(C)C(=O)CN(C)C(=O)[C@H]1N[C@@H]1C1CC1)C(=O)N1CCC[C@H](N1)C(=O)OCC(C)(C)C2 [Example 135]
Resp: < 10 nM

Req: Requested read-out: IC50. Entry: CCn1c(-c2cccnc2[C@H](C)OC)c2c3cc(ccc31)-c1cc(O)cc(c1)C[C@H](NC(=O)[C@H](C(C)C)N(C)C(=O)CN(C)C(=O)[C@H]1N[C@@H]1C(F)(F)F)C(=O)N1CCC[C@H](N1)C(=O)OCC(C)(C)C2
Resp: 10 to 100 nM

Req: Requested read-out: IC50. Entry: CCn1c(-c2cc(N3CCN(C)CC3)cnc2[C@H](C)OC)c2c3cc(ccc31)-c1cc(O)cc(c1)C[C@H](NC(=O)[C@H](C1CCCC1)N(C)C(=O)CN(C)C(=O)[C@@H]1N[C@@H]1C1CC1)C(=O)N1CCC[C@H](N1)C(=O)OCC(C)(C)C2
Resp: < 10 nM

* * *

Give measured pIC50 for each item. Keep answers brief.
tested-target: KRAS G12S (Homo sapiens, UniProt P01116+P62937, G12S)
test-method-notes: Ras-Raf disruption / FRET / MOA assay (BRAF RBD)
Format: biochemical
condition-summary: Ras-Raf disruption, with Cyclophilin A; read-out: KRAS G12S FRET data IC50
pIC50: −log10 of the molar value.

Req: Requested read-out: pIC50. Entry: CCn1c(-c2cnccc2COC)c2c3cc(ccc31)-c1cccc(c1)C[C@H](NC(=O)[C@H](C(C)C)N(C)C(=O)CC1(N=C=Nc3ccc(OC)cc3)CC1)C(=O)N1CCC[C@H](N1)C(=O)OCC(C)(C)C2 [65 A and B]
Resp: < 5.00

Req: Requested read-out: pIC50. Entry: CCn1c(-c2cnccc2COC)c2c3cc(ccc31)-c1cccc(c1)C[C@H](NC(=O)[C@H](C(C)C)N(C)C(=O)CCN=C=NCc1ccccc1)C(=O)N1CCC[C@H](N1)C(=O)OCC(C)(C)C2 [19 A and B]
Resp: < 5.00

Req: Requested read-out: pIC50. Entry: CCn1c(-c2cnccc2COC)c2c3cc(ccc31)-c1cccc(c1)C[C@H](NC(=O)[C@H](C(C)C)N(C)C(=O)CCN=C=NCCCSC)C(=O)N1CCC[C@H](N1)C(=O)OCC(C)(C)C2 [16 A and B]
Resp: < 5.00

Req: Requested read-out: pIC50. Entry: CCn1c(-c2cccnc2[C@H](C)OC)c2c3cc(ccc31)-c1cc(O)cc(c1)C[C@H](NC(=O)[C@H](C(C)C)N(C)C(=O)N1CC(NC(=O)[C@@H]3CN3)C1)C(=O)N1CCC[C@H](N1)C(=O)OCC(C)(C)C2 (atropisomer, axis not shown) [Example 188]
Resp: 6.00 to 7.00

* * *

tested-target: NRAS Q61K (Homo sapiens, UniProt P01111+P62937, Q61K)
Sequence (P01111 whole entry Q61K): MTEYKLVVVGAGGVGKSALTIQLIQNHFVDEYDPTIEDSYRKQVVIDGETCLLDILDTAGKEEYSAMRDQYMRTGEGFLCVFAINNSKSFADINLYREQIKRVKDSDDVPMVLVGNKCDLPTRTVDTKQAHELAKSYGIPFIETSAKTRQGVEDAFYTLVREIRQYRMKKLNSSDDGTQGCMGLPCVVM
Sequence (P62937 whole entry): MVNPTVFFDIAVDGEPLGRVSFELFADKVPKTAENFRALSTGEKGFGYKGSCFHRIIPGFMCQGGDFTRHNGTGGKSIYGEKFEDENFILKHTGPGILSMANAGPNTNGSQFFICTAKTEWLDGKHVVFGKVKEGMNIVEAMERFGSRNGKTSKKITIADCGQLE
test-method-notes: Disruption of BRAF RBD interaction with Ras (FRET / MOA assay, with Cyclophilin A)
Type: biochemical
condition-summary: NRAS Q61K; read-out: NRAS Q61K FRET data IC50
Text: Disruption of B-Raf Ras-Binding Domain (BRAF^RBD) Interaction with K-Ras by Compounds of the Invention (Also Called a FRET Assay or an MOA Assay) Note—The following protocol describes a procedure for monitoring disruption of K-Ras G12C (GMP-PNP) binding to BRAF^RBD by a compound of the invention. This protocol may also be executed substituting other Ras proteins or nucleotides. […]
pIC50: −log10 of the molar value.
experimental-readout: pIC50

Req: Requested read-out: pIC50. Entry: CCn1c(-c2cccnc2[C@H](C)OC)c2c3cc(ccc31)-c1cc(O)cc(c1)C[C@H](NC(=O)[C@H](C(C)C)N(C)C(=O)C1(C#N)CC1)C(=O)N1CCC[C@H](N1)C(=O)OCC(C)(C)C2 (racemic)
Resp: 7.00 to 8.00

Req: Requested read-out: pIC50. Entry: CCn1c(-c2cccnc2[C@H](C)OC)c2c3cc(ccc31)-c1cccc(c1)C[C@H](NC(=O)[C@@H](CN1CC[C@]3(CCN(C(=O)C#C[C@H]4COCCN4C)C3)C1=O)C(C)C)C(=O)N1CCCC(N1)C(=O)OCC(C)(C)C2 (stereo partly shown)
Resp: < 5.00

Req: Requested read-out: pIC50. Entry: C=CS(=O)(=O)N1CC[C@H](C(=O)N(C)[C@H](C(=O)N[C@H]2Cc3nc(cs3)-c3ccc4c(c3)c(c(-c3cncnc3)n4CC)CC(C)(C)COC(=O)[C@@H]3CCCN(N3)C2=O)C(C)C)C1
Resp: < 5.00

Req: Requested read-out: pIC50. Entry: CCn1c(-c2cccnc2[C@H](C)OC)c2c3cc(ccc31)-c1csc(n1)C[C@H](NC(=O)[C@H](C(C)C)N(C)C(=O)N1CC[C@@]3(CCN(C)C3=O)C1)C(=O)N1CCC[C@H](N1)C(=O)OCC(C)(C)C2 (single isomer, unassigned)
Resp: 6.00 to 7.00
